tested on: KRas G12C mutant; test: Ras GTP binding domain inhibition assay (Cy3-GTP/Cy5-GTP competition); parameters: species or system human; settings: 20 μM; with SOS
readout_name: KRas G12C mutant + SOS: % inh.

| molecule | assay_target | reported |
| --- | --- | --- |
| Oc1nc(-c2cn3ccccc3n2)nc2c(-c3ccccn3)csc12 [drawing 816] | KRas G12C mutant | B (26-50% inhibition) |
| Oc1nc(-c2ncc3n2CCCC3)nc2c(-c3ccccn3)csc12 [drawing 833] | KRas G12C mutant | C (51-75% inhibition) |
| COc1cc(-c2sc3nc(-c4nccn4C)nc(N4CCC(OC)C4)c3c2-c2ccccc2)ccn1.Cl (stereo not shown) | KRas G12C mutant | D (76-100% inhibition) |
| COC(=O)c1nc(C2NCCN2C)nc(O)c1O (stereo not shown) | KRas G12C mutant | C (51-75% inhibition) |
| COC1CCN(c2nc(-c3nccn3C)nn3cc(-c4ccccc4)c(-c4ccccc4)c23)C1 (stereo not shown) [drawing 796] | KRas G12C mutant | B (26-50% inhibition) |

So the reported KRas G12C mutant + SOS: % inh. for COCCNc1nc(-c2nccn2C)nc2sc(-c3ccccc3Cl)c(-c3ccc(OC)cc3)c12 [drawing 876] , on KRas G12C mutant, turned out to be D (76-100% inhibition)

Log: KRas G12C mutant, molecule CC(C)CNC(=O)c1nc(-c2ccccn2)nc(O)c1O [drawing 811] , KRas G12C mutant + SOS: % inh. = B (26-50% inhibition)

====

system: GTP-bound RAS; experiment: Cell-based Ras-GTP pulldown assay, NCI H1975; details: Homo sapiens
readout_name: IC50

| compound | reported |
| --- | --- |
| COCCNc1nc(-c2nccn2C)nc2sc(-c3cccc(OC)c3Cl)c(-c3ccccc3)c12 [drawing 1079] | > 1 µM |

GET /values?item= CO[C@H]1CCC(Nc2nc(-c3nccn3C)nc3sc(-c4ccn(C)n4)c(-c4ccccc4)c23)C1 (some centres unmarked) [drawing 1080] &system= GTP-bound RAS returns IC50: > 1 µM

====

molecular target: Rho-A (Homo sapiens, UniProt P61586); test: Ras GTP binding domain inhibition assay (Cy3-GTP/Cy5-GTP competition); settings: without SOS, read-out: Rho-A: % inh.
Sequence (P61586 1-190): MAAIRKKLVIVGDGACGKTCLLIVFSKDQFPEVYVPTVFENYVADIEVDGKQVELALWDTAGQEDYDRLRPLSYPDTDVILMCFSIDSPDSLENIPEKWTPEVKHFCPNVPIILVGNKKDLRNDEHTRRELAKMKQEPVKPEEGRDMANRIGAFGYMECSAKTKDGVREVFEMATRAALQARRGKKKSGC
readout_name: inhibition at 20 µM

Examples with answers:
| compound | inhibition at 20 µM |
| --- | --- |
| COC1CCN(c2nc(-c3nccn3C)nc3sc(-c4ccnc(N(C)C)c4)c(-c4ccccc4)c23)C1 (stereo not shown) [drawing 958] | 26 to 50% |
| COC1CCN(c2nc(-c3nccn3C)nc3sc(-c4cnc(C5CC5)o4)c(-c4ccccc4)c23)C1 (stereo not shown) [drawing 977] | 26 to 50% |
| COC1CCN(c2nc(-c3nccn3C)nc3sc(Br)c(-c4ccccc4)c23)C1 (stereo not shown) [drawing 957] | 1 to 25% |

Lookup result for COC1CCN(c2nc(-c3nccn3C)nn3cc(-c4ccccc4)c(-c4ccccc4)c23)C1 (stereo not shown) [drawing 931] ; measured inhibition at 20 µM: 51 to 75%

Per the records, this compound ( CO[C@H]1C[C@@H](Nc2nc(-c3ccccn3)nc3sccc23)C1 [drawing 1037] ) has inhibition at 20 µM equal to 76 to 100%

So, COC1CCN(c2nc(-c3nccn3C)nc3sc(-c4ccc(CO)cc4)c(-c4ccccc4)c23)C1 (stereo not shown) [drawing 954] ? Its inhibition at 20 µM was 0%

# inhibition at 20 µM of COc1c(O)nc(-c2ccccn2)nc1Oc1ccc(C(=O)N(C)C)cc1 [drawing 1014] = 51 to 75%

Lab note: measured inhibition at 20 µM of CO[C@H]1CC[C@@H](Nc2nc(-c3nccn3C)nc3sc(-c4ccn(C(C)C)n4)c(-c4ccccc4)c23)C1 [drawing 1047] was 76 to 100%

# inhibition at 20 µM of COCCNc1nc(-c2nccn2C)nc2sc(-c3cc(OC)ccc3Cl)c(-c3ccccc3)c12 [drawing 1006] = 1 to 25%

Value of inhibition at 20 µM reported for the compound COCCn1cc(-c2sc3nc(-c4nccn4C)nc(N4CCC(OC)C4)c3c2-c2ccccc2)cn1 (stereo not shown) [drawing 976] is 26 to 50%

# compound Oc1nc(-c2cn(-c3ccccc3)cn2)nc2c(-c3ccccn3)csc12 [drawing 982] ; its inhibition at 20 µM = 0%

// CC(C)COc1ccc(-c2csc3c(O)nc(-c4nccn4Cc4ccccn4)nc23)cn1 [drawing 1034] : inhibition at 20 µM value = 76 to 100%

Memo: COCCN(C)C(=O)c1nc(-c2ccccn2)nc(O)c1O [drawing 945] , reported inhibition at 20 µM: 26 to 50%

Sure, the documented inhibition at 20 µM for COc1ccc(-c2sc3nc(-c4nccn4C)nc(N4CCC(OC)C4)c3c2-c2ccccc2)cn1 (stereo not shown) [drawing 971] is 51 to 75%

The measured inhibition at 20 µM associated with CO[C@H]1CC[C@@H](Nc2nc(-c3nccn3C)nc3sc(C(=O)N4CCCC4)c(-c4ccccc4)c23)C1 [drawing 1061] reads 76 to 100%

# inhibition at 20 µM (compound: CN(C)CCOCCNc1nc(-c2nccn2C)nc2sc(-c3ccn(C)n3)c(-c3ccccc3)c12 [drawing 1042] ) is 51 to 75%

Record Cn1ccnc1-c1nc(O)c(O)c(C(=O)N2CCCCC2)n1 [drawing 961] . Reported inhibition at 20 µM: 26 to 50%

Entry COc1nc(-c2ccccn2)nc2c(-c3ccccn3)csc12 [drawing 1048] ; inhibition at 20 µM = 26 to 50%

This collection of values is drawn from patent US20250296938A1.
